Data origin: the RNAGym collection of RNA variant scans (doi:10.1126/science.aae0568)

B1: tRNA (parent)
chain: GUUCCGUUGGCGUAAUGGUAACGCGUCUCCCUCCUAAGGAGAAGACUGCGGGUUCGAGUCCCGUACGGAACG

- Variants of: B1
- TEST_DESCRIPTION: yeast fitness relative to wild type (ratio to wild type); higher = fitter; tRNA-Arg(CCU), competitive growth, 37 C, YPD
This sample holds only a part of the variants without activity.
MEASUREMENT_LABEL: yeast fitness
// return just the number, without any unit appended

Some solved entries appear below for comparison.
mutation_label="G12A G25C" measurement_label="yeast fitness" observed=0.961
mutation_label="C4G G63A" measurement_label="yeast fitness" observed=0.813
mutation_label="C24G U28C" measurement_label="yeast fitness" observed=0.508
mutation_label="A15C G39A C62U" measurement_label="yeast fitness" observed=0.553
mutation_label="G52A A70U" measurement_label="yeast fitness" observed=0.767
mutation_label="G25C G63A" measurement_label="yeast fitness" observed=0.955
mutation_label="C11U G17C C30A C33G C61U" measurement_label="yeast fitness" observed=0.581
mutation_label="C34U A36C A70C" measurement_label="yeast fitness" observed=0.594
mutation_label="A36C U59C" measurement_label="yeast fitness" observed=0.562
mutation_label="C11A U32C A65U" measurement_label="yeast fitness" observed=0.565

Query: Suppose we examine the variant G6A A21G ; what yeast fitness value has been reported?
Reply: 0.965

Query: Cool, now C27U C33U G51A A70G
Reply: 0.555

Query: Moving on to the next variant: G41C C55A
Reply: 0.617

Query: Okay, and C4A G18C C29A C31A ?
Reply: 0.562

Query: Subsequent entry: C34G A40G
Reply: 0.642
